Source: paper PMC9454848

test: Plasma pharmacokinetics after single dose (C1D1), LC-MS/MS; type: in vivo, human; conditions: human, plasma, oral, 3 mg, cohort Schedule B, 3.0 mg, n = 4, read-out: AUC(0–T), GM (%CV)
assay.readout: AUC(0-t) (ng·h/mL)

{"smiles": "Cc1nnn(C)c1-c1cnc2c3ccc(C(C)(C)O)cc3n([C@H](c3ccccc3)C3CCOCC3)c2c1", "readout.unit": "ng·h/mL", "value.observed": 28900}

---

assay: Plasma pharmacokinetics after multiple doses (cycle 2, steady state), LC-MS/MS; format: in vivo, human; conditions: human, plasma, oral, 3 mg, multiple dose, steady state; Schedule B (14 days on, 7 days off), 3.0 mg, n = 1; read-out: AUC(0–T), GM (%CV)

{"compound": "Cc1nnn(C)c1-c1cnc2c3ccc(C(C)(C)O)cc3n([C@H](c3ccccc3)C3CCOCC3)c2c1 [BMS-986158]", "AUC(0-t) [µg·h/mL]": 34}
